# Study System: membrane-bound tissue factor (TF) on cells (human, UniProt P13726 33-295)
# Measurement Notes: cell-based or functional assay
Endpoint Name: % kill at 10 µg/mL, NCI-H441 cells, ADC killing assay (%)
One number for each entry, in %.

HuMab-TF-011-mcMMAF (antibody, IgG1, V domains shown, mcMMAF drug-linker alkylated to cysteines of the reduced antibody (positions not given), DAR 3.9 by RP-HPLC, 4.1 by HIC) VH: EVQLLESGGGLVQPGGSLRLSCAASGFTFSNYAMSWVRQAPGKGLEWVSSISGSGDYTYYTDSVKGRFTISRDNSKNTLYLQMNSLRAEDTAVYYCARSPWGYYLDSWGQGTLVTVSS VL: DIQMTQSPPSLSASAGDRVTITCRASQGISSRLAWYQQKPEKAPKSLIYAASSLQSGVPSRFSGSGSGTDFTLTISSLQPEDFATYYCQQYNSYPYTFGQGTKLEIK ... 53

Answer for every listed entry: what is its % kill at 10 µg/mL, NCI-H441 cells, ADC killing assay? The entries follow.
1. HuMab-TF-111-vcMMAE (antibody, IgG1, V domains shown, vcMMAE drug-linker alkylated to cysteines of the reduced antibody (positions not given), DAR 4.3 by RP-HPLC, 4.1 by HIC) VH: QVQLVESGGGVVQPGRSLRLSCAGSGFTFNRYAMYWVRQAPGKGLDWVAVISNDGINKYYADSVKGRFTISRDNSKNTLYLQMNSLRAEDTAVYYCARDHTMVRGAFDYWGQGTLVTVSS VL: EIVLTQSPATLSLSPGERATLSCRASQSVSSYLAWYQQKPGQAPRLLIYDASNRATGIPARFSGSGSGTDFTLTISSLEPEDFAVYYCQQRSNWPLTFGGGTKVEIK
2. HuMab-TF-098-vcMMAE (antibody, IgG1, V domains shown, vcMMAE drug-linker alkylated to cysteines of the reduced antibody (positions not given), DAR 3.9 by RP-HPLC, 3.7 by HIC) VH: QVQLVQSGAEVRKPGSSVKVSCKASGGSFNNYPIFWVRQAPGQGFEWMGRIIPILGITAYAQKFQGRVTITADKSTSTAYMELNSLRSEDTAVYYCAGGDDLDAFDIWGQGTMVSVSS VL: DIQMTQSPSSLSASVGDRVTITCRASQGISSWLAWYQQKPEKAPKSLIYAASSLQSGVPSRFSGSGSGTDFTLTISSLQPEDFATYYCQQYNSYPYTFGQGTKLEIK

1: 51; 2: 60

Where do these numbers come from? They come from patent US20240294661A1.
